Every entry's value here was drawn from patent US8293773B2.

- TESTED_SYSTEM: human CB1 receptor (Homo sapiens, UniProt P21554)
- Construct: expressed in transfected cells; membrane-enriched fractions
- Sequence (P21554 whole entry): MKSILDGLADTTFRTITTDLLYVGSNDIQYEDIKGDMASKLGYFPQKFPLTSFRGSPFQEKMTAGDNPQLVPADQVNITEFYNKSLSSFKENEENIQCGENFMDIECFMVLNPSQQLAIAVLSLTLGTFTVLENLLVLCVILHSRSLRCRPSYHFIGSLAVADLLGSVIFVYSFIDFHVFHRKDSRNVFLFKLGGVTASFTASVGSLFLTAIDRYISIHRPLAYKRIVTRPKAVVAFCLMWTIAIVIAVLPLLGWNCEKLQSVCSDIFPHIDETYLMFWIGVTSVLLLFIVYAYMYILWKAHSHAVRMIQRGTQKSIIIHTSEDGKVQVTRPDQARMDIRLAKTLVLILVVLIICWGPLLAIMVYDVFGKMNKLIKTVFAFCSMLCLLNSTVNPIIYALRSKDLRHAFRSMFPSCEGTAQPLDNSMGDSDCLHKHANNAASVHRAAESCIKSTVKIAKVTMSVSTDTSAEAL
- ASSAY_COMMENT: competitive radioligand binding assay, displacement of [3H]CP55,940, CB1
- ASSAY_SETUP: Table 1; percent inhibition at 10 μM

SMILES_ENTRY | inhibition at 10 µM
CCCCCCOC(=O)Cn1nnc(-c2ccc(Cl)cc2)c1-c1ccc(Cl)cc1Cl | 45.7%
CCCCOC(=O)Cn1nnc(-c2cccc(Br)c2)c1-c1cccc(Br)c1 | 18.3%
O=C(Cn1nnc(-c2ccccc2)c1-c1ccccc1)OCc1ccccc1 | 35.4%
CCCCCCCCN(CCCCCCCC)C(=O)Cn1nnc(-c2ccccc2)c1-c1ccccc1 | 4.1%
CCCCCNC(=O)NNC(=O)Cn1nnc(-c2ccc(Cl)cc2)c1-c1ccc(Cl)cc1 | 18.6%
O=C(Cn1nnc(-c2ccc(Cl)cc2Cl)c1-c1ccc(Cl)cc1)N1CCCCC1 | 61.8%
CCCCCOC(=O)Cn1nnc(-c2ccc(Cl)cc2Cl)c1-c1ccc(Cl)cc1Cl | 58.3%
CCCCOC(=O)Cn1nnc(-c2ccc(Br)cc2)c1-c1ccc(Br)cc1 | 68.7%

* * *

- TESTED_SYSTEM: human CB1 receptor (Homo sapiens)
- Construct: membrane-enriched fractions
- ASSAY_COMMENT: competitive radioligand binding assay, displacement of [3H]CP55,940, CB1
- ASSAY_SETUP: displacement of specific [3H]-CP55940 binding in HEK 293 cells stably transfected with human CB1 receptor
pIC50: −log10 of the molar value.
OUTCOME_MEASURE: pIC50

MOLECULE | RESULT_NUMBER
O=C(Cn1nc(-c2ccc(Cl)cc2Cl)c(-c2ccc(Cl)cc2Cl)n1)NCc1ccccc1 [Compound 122] | 7.17
O=C(Cn1nc(-c2ccc(Cl)cc2Cl)c(-c2ccc(Cl)cc2Cl)n1)NCc1ccc(Cl)cc1 [Compound 192] | 7.19
COc1ccc(CNC(=O)Cn2nc(-c3ccc(Cl)cc3Cl)c(-c3ccc(Cl)cc3Cl)n2)cc1 [Compound 146] | 7.09
CCCCCOC(=O)Cn1nc(-c2ccc(Cl)cc2Cl)c(-c2ccc(Cl)cc2Cl)n1 [Compound 116] | 5.55
O=C(Cn1nc(-c2ccc(Cl)cc2Cl)c(-c2ccc(Cl)cc2Cl)n1)Nc1ccccc1 [Compound 147] | 6.60
CCCCOC(=O)Cn1nc(-c2ccc(Cl)cc2Cl)c(-c2ccc(Cl)cc2Cl)n1 [Compound 111] | 5.93
Cc1ccccc1CNC(=O)Cn1nc(-c2ccc(Cl)cc2)c(-c2ccc(Cl)cc2Cl)n1 [Compound 148] | 6.23
O=C(Cn1nc(-c2ccc(Cl)cc2)c(-c2ccc(Cl)cc2Cl)n1)NCc1ccccc1C(F)(F)F [Compound 158] | 6.52

* * *

- TESTED_SYSTEM: human CB1 receptor (Homo sapiens)
- Construct: expressed in transfected cells; membrane-enriched fractions
- ASSAY_COMMENT: competitive radioligand binding assay, displacement of [3H]CP55,940, CB1
- ASSAY_SETUP: Table 2; percent inhibition at 10 μM
# inhibition at 10 µM annotations
OUTCOME_MEASURE: inhibition at 10 µM (%)

SMILES_ENTRY | RESULT_NUMBER
CCCCCCCNC(=O)n1nc(-c2ccc(Cl)cc2)c(-c2ccc(Cl)cc2Cl)n1 | 14.9
Cc1ccc(CNC(=O)Cn2nc(-c3ccc(Cl)cc3Cl)c(-c3ccc(Cl)cc3Cl)n2)cc1 | 95
CCCCOC(=O)CNC(=O)n1nc(-c2ccc(Cl)cc2)c(-c2ccc(Cl)cc2)n1 | 58.1
O=C(Cn1nc(-c2ccc(Cl)cc2Cl)c(-c2ccc(Cl)cc2Cl)n1)N[C@H]1c2ccccc2C[C@H]1OC(=O)Cn1nc(-c2ccc(Cl)cc2Cl)c(-c2ccc(Cl)cc2Cl)n1 | 13.6
O=C(Cn1nc(-c2ccc(Cl)cc2Cl)c(-c2ccc(Cl)cc2Cl)n1)Oc1ccccc1 | 14.3
O=C(NCc1ccccc1)n1nc(-c2ccc(Cl)cc2)c(-c2ccc(Cl)cc2Cl)n1 | 18.6
O=C(Cn1nc(-c2ccc(Cl)cc2Cl)c(-c2ccc(Cl)cc2Cl)n1)N1CCCCC1 | 93.7
O=C(NCc1ccccc1)n1nc(-c2ccc(Cl)cc2Cl)c(-c2ccc(Cl)cc2Cl)n1 | 23.8
C[C@H](NC(=O)Cn1nc(-c2ccc(Cl)cc2Cl)c(-c2ccc(Cl)cc2Cl)n1)C(O)(c1ccccc1)c1ccccc1 | 75.7
O=C(Cn1nc(-c2ccc(Cl)cc2)c(-c2ccc(Cl)cc2Cl)n1)N1CCCCC1 | 76.5
O=C(NCCc1ccccc1)n1nc(-c2ccc(Cl)cc2)c(-c2ccc(Cl)cc2Cl)n1 | 23.4
O=C(Cn1nc(-c2ccc(Cl)cc2)c(-c2ccc(Cl)cc2Cl)n1)NCc1ccc(F)cc1 | 90.5
CCCCOC(=O)Cn1nc(-c2ccc(Cl)cc2Cl)c(-c2ccc(Cl)cc2Cl)n1 | 90.3
COc1ccc(CNC(=O)Cn2nc(-c3ccc(Cl)cc3)c(-c3ccc(Cl)cc3Cl)n2)cc1 | 78.2
O=C(Cn1nc(-c2ccc(Cl)cc2Cl)c(-c2ccc(Cl)cc2Cl)n1)NC1CCCCC1 | 74.2

* * *

Here the recorded inhibition at 10 µM is given for each entry.
- TESTED_SYSTEM: human CB1 receptor (Homo sapiens, UniProt P21554)
- Construct: expressed in transfected cells; membrane-enriched fractions
- ASSAY_COMMENT: competitive radioligand binding assay, displacement of [3H]CP55,940, CB1
- ASSAY_SETUP: Table 2; percent inhibition at 10 μM
OUTCOME_MEASURE: inhibition at 10 µM (%)

SMILES_ENTRY | TESTED_SYSTEM | RESULT_NUMBER
CCOC(=O)Cn1nc(-c2ccccc2)c(-c2ccccc2)n1 | human CB1 receptor (Homo sapiens, UniProt P21554) | 59.1
O=C(NCCc1ccccc1)n1nc(-c2ccc(Cl)cc2Cl)c(-c2ccc(Cl)cc2Cl)n1 | human CB1 receptor (Homo sapiens, UniProt P21554) | 11.2
CCCCCCCNC(=O)n1nc(-c2ccc(Cl)cc2Cl)c(-c2ccc(Cl)cc2Cl)n1 | human CB1 receptor (Homo sapiens, UniProt P21554) | 12.9
O=C(Cn1nc(-c2ccccc2)c(-c2ccccc2)n1)NC1CCCCC1 | human CB1 receptor (Homo sapiens, UniProt P21554) | 11.6

* * *

- TESTED_SYSTEM: human CB1 receptor (Homo sapiens, UniProt P21554)
- Construct: membrane-enriched fractions
- ASSAY_COMMENT: competitive radioligand binding assay, displacement of [3H]CP55,940, CB1
- ASSAY_SETUP: displacement of specific [3H]-CP55940 binding in HEK 293 cells stably transfected with human CB1 receptor
- Description: In addition, the affinity of test compounds of this invention toward CB1 and CB2 receptors was determined by competitive radioligand binding assays in vitro. This method differentiates the binding strength between compounds by their abilities in displacing a receptor-specific radioactive ligand. […] The readings of the radioactivity retained allow further analysis of receptor binding, and assist in predictions of the pharmacological activities of the test compounds. […]
Overview of reported IC50 across a group of compounds:
OUTCOME_MEASURE: IC50 (nM)

COMPOUND | RESULT_NUMBER
O=C(Cn1nc(-c2ccc(Cl)cc2Cl)c(-c2ccc(Cl)cc2Cl)n1)N[C@H](CO)Cc1ccccc1 | 295
C[C@H](NC(=O)Cn1nc(-c2ccc(Cl)cc2Cl)c(-c2ccc(Cl)cc2Cl)n1)C(O)(c1ccccc1)c1ccccc1 | 760
O=C(Cn1nc(-c2ccc(Cl)cc2Cl)c(-c2ccc(Cl)cc2Cl)n1)NCc1ccccc1F | 19.3
COc1ccccc1CNC(=O)Cn1nc(-c2ccc(Cl)cc2Cl)c(-c2ccc(Cl)cc2Cl)n1 | 125
CCCCCCOC(=O)Cn1nc(-c2ccc(Cl)cc2Cl)c(-c2ccc(Cl)cc2Cl)n1 | 4460
COc1ccc(CNC(=O)Cn2nc(-c3ccc(Cl)cc3)c(-c3ccc(Cl)cc3Cl)n2)cc1 | 684
Cc1ccc(CNC(=O)Cn2nc(-c3ccc(Cl)cc3Cl)c(-c3ccc(Cl)cc3Cl)n2)cc1 | 252
CC(C)[C@H](NC(=O)Cn1nc(-c2ccc(Cl)cc2)c(-c2ccc(Cl)cc2Cl)n1)C(O)(c1ccccc1)c1ccccc1 | 140
CC(NC(=O)Cn1nc(-c2ccc(Cl)cc2Cl)c(-c2ccc(Cl)cc2Cl)n1)c1ccccc1 (stereo not drawn) | 48
O=C(Cn1nc(-c2ccc(Cl)cc2Cl)c(-c2ccc(Cl)cc2Cl)n1)NCc1cccc(F)c1 | 25.7
O=C(Cn1nc(-c2ccc(Cl)cc2Cl)c(-c2ccc(Cl)cc2Cl)n1)N[C@H]1c2ccccc2C[C@H]1O | 1240
O=C(Cn1nc(-c2ccc(Cl)cc2Cl)c(-c2ccc(Cl)cc2Cl)n1)NC1CCCCC1 | 144
COc1ccc(CNC(=O)Cn2nc(-c3ccc(Cl)cc3)c(-c3ccc(Cl)cc3Cl)n2)cc1OC | 2830
O=C(Cn1nc(-c2ccc(Cl)cc2Cl)c(-c2ccc(Cl)cc2Cl)n1)NCc1ccc(F)cc1F | 45.9
O=C(Cn1nc(-c2ccc(Cl)cc2)c(-c2ccc(Cl)cc2Cl)n1)NCc1ccc(Cl)cc1Cl | 711
